- test summary: Components of the Cytosolic LPS Sensing Pathway: Gene Identification via Genome-wide siRNA Screen
- recorded conditions: RAW264.7 macrophages, IL-1a HTRF, actives lie on both sides, screened at 100 nM (by protocol), cells primed 5 h with Pam3CSK4 first
- Description: Non-canonical inflammasome activation by cytosolic LPS is a critical component of the host response to Gram-negative bacterial infection, however we lack a comprehensive understanding of the cellular processes that control this pathway. […] Lipofectamine RNAiMAX Transfection Reagent ([…]; Invitrogen) was added in […] serum-free, antibiotic-free media to plate wells using a Thermo Scientific Matrix WellMate and Microplate Stacker. […] The plates were read on an EnVision plate reader (PerkinElmer). […]
About 3,700 (7%) of roughly 53,000 sequences were called active. The sample as a whole holds a higher share of actives than the screen did.
# if measured z-score < 0.1: t  # else: f

biosequence | assigned label
GGACUUUAAUCACAGACAATT against Fem1b | t
AACUAGCAAUAUGAUGGAGTT against Chic1 | t
GGUCACUCAAAGAAUUAUGTT against Srr | t
GGAUGUGUUCUAUUCUAUATT against Oprl1 | f
GCUCCUACAAAACAUCCGATT against A130079P16Rik | t
GGUUAUGAAACUGAGAAAGTT against Mid2 | t
GCUUAUUCCCAGGAGACCATT against Dmrtc2 | t
GGUUCUAGACAAUUACCUGTT against Clic1 | f
GGUUUUUCUGUCAAGUGCUTT against Lgr5 | t
GGUACUUUGGAAAGAAGAGTT against Yeats4 | t

Q: Item GGCUGAAAAUGGGAAGCUUTT against Gm5069 : z-score beneath 0.1, strictly?
Result: t

Q: Report whether reported z-score is lower than 0.1 (strictly) for GGGCUUUUACUCCUACCUGTT against Slc43a2
Result: t

Q: Threshold test, z-score < 0.1: CGCAGAGGUUUUACUUUAATT against Mycbpap
Result: f

Q: Lab log: compare recorded z-score with 0.1; is it strictly lower for GGGUUUCAGAACUGAGUUATT against Saa1 ?
Result: t

Q: Quick check: does CCGGUAAUGAGUUCAAGUGTT against Arsa have z-score under 0.1?
Result: f
